Source: patent US20240174690A1

assay: Solubility measurement (DMSO solution method), McIlvaine buffer pH 4.5 or 6.8; format: physicochemical; details: aqueous buffer, kinetic from dmso stock; McIlvaine buffer pH 4.5; DMSO stock diluted to 250 μM; 24 h shaking at ambient temperature; read-out: solubility pH 4.5
metric name: solubility at 24 h (µg/mL)
Answers are plain numbers, in µg/mL.

Solved entries:
>>> df
                                   compound         metric_name  readout_units  observed
0  COCCNC(=O)c1ccn(-c2cc(O[C@@H](C)[C@@H]3CCCN3C)nc(-c3noc4c3CCC[C@@]43CCCc4sc(N)c(C#N)c43)n2)n1 [II-195]  solubility at 24 h          µg/mL       131
1  C[C@H](Oc1cc(-n2ccnn2)nc(-c2onc3c2CCC[C@@]32CCCc3sc(N)c(C#N)c32)n1)[C@@H]1CCCN1C [I-32]  solubility at 24 h          µg/mL       100

// moving on: another record for solubility at 24 h
Challenge: Write down solubility at 24 h measured for item COc1c(O[C@@H](C)[C@@H]2CCCN2C)nc(-c2noc3c2CCC[C@@]32CCCc3sc(N)c(C#N)c32)nc1-n1ccc(C(N)=O)n1 [II-159]
Response given: 125

* * *

assay: Metabolic (microsomal) stability assay, human liver microsomes (HLM); assay type: in vitro ADME; conditions: predicted clearance as percent of liver blood flow, 1 μM
Please go through the items and note down their HLM QH.

Solved cases (4 shown):
                              line_notation  observed
0  C[C@H](Oc1nc(-c2onc3c2CCC[C@@]32CCCc3sc(N)c(C#N)c32)cc(N2CCN(C)C3(CC3)C2)n1)[C@@H]1CCCN1C       42%
1  C[C@H](Oc1cc(N2C[C@H]3CN(C)C[C@H]3C2)nc(-c2noc3c2CCC[C@@]32CCCc3sc(N)c(C#N)c32)n1)[C@@H]1CCCN1C      <24%
2  C[C@H](Oc1cc(-n2cc(C(=O)N(C)C)nn2)nc(-c2noc3c2CCC[C@@]32CCCc3sc(N)c(C#N)c32)n1)[C@@H]1CCCN1C       36%
3  C[C@H](Oc1cc(-n2ccc(C(=O)N[C@@H]3CCOC3)n2)nc(-c2noc3c2CCC[C@@]32CCCc3sc(N)c(C#N)c32)n1)[C@@H]1CCCN1C       30%

Fill in HLM QH for each of the 2 compounds listed.
1. Cc1cn(-c2cc(O[C@@H](C)[C@@H]3CCCN3C)nc(-c3noc4c3CCC[C@@]43CCCc4sc(N)c(C#N)c43)n2)nn1
2. C[C@H](Oc1cc(-n2nccc2-c2ccncc2)nc(-c2noc3c2CCC[C@@]32CCCc3sc(N)c(C#N)c32)n1)[C@@H]1CCCN1C

Response given:
["44%", "<24%"]

* * *

test: Caco-2 assay (permeability PappAB, PappBA, efflux ratio); type: in vitro ADME; settings: human, Caco-2; apical to basolateral; 10 μM test compound, pH 7.4
metric name: Papp A→B at 90 min, 10 μM
Kindly format the answer as number then unit.

# annotated cases, reported Papp A→B at 90 min, 10 μM shown
In [3]: df
Out[3]:
                                   molecule        observed
0  COCCNC(=O)c1ccn(-c2cc(O[C@@H](C)[C@@H]3CCCN3C)nc(-c3noc4c3CCC[C@@]43CCCc4sc(N)c(C#N)c43)n2)n1 [II-195]  6.2 ×10⁻⁶ cm/s
1  C[C@H](Oc1cc(N2CCNC[C@@]23CCOC3)nc(-c2onc3c2CCC[C@@]32CCCc3sc(N)c(C#N)c32)n1)[C@@H]1CCCN1C [I-13]  0.4 ×10⁻⁶ cm/s
2  C[C@H](Oc1cc(N2CCC(N(C)C)CC2)nc(-c2noc3c2CCC[C@@]32CCCc3sc(N)c(C#N)c32)n1)[C@@H]1CCCN1C [II-48]  0.6 ×10⁻⁶ cm/s
3  C[C@H](Oc1cc(C2CCOCC2)nc(-c2noc3c2CCC[C@@]32CCCc3sc(N)c(C#N)c32)n1)[C@@H]1CCCN1C [II-76]  6.5 ×10⁻⁶ cm/s
4  C[C@H](Oc1cc(-n2ccc(C(=O)NC3(C)COC3)n2)nc(-c2noc3c2CCC[C@@]32CCCc3sc(N)c(C#N)c32)n1)[C@@H]1CCCN1C [II-26]   11 ×10⁻⁶ cm/s

Query molecule follows.
Challenge: Identify measured Papp A→B at 90 min, 10 μM corresponding to C[C@H](Oc1cc(-n2ccc(C(N)=O)n2)nc(-c2noc3c2CCC[C@@]32CCCc3sc(N)c(C#N)c32)n1)[C@@H]1CCCN1C [II-21]
Response given: 3.5 ×10⁻⁶ cm/s
